# experimental protocol: NCI Yeast Anticancer Drug Screen. Data for the rad50 strain (AID 155);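 also: 0% = growth of vehicle-only cultures of the same strain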
# condition context: S. cerevisiae rad50 strain growth inhibition; at 100.0 µM
Compounds without any hit were thinned out: in the full panel of roughly 79,000, 15% have a hit. The source made the active and inactive calls. Rule as the data show it: active = growth inhibition above about 70%; inactive = the rest.
Lab note: assign the record to one of 1 for active, 0 for inactive

Please state the recorded outcome for this molecule: CCCCCCN(CCCCCC)CC(O)c1ccnc2ccc(OC)cc12 (stereo unspecified) 0

Please state the recorded outcome for this molecule: "O=C(NCCCl)Sc1ccc(Cl)cc1" 1

Please state the recorded outcome for this molecule: "CCCCC/C(=C(\C#N)C(=O)OCC)c1ccccc1" 0

Please state the recorded outcome for this molecule: "CCOC(=O)c1ccc(NC(=O)O/N=C(/Cl)C(C)C)cc1" 1

Please state the recorded outcome for this molecule: N=C1N=Nc2nc(C3(c4nc5n(c4O)C(=N)N=N5)Cc4ccccc4C3=O)c(O)n21 (stereo unspecified) 1

Please state the recorded outcome for this molecule: Nc1nc2ccc(NCc3ccc(C(=O)NC(CCC(=O)O)C(=O)O)cc3)cc2c(=O)[nH]1 (stereo unspecified) 1

Please state the recorded outcome for this molecule: CC1SC2(C(=O)Nc3ccc(Cl)cc32)N(c2ccc(Cl)cc2)C1=O (stereo unspecified) 1

Please state the recorded outcome for this molecule: CN(C)c1ccc(C2CC(C)(O)Oc3cc4c(cc32)OCO4)cc1 (stereo unspecified) 0

Please state the recorded outcome for this molecule: "CN(C)N=Nc1ccccc1C(=O)NC#N" 1

Please state the recorded outcome for this molecule: "O=[N+]([O-])/C=C/c1cc(Cl)c(/C=C/[N+](=O)[O-])cc1Cl" 1

Please state the recorded outcome for this molecule: O=C(c1ccc([N+](=O)[O-])cc1)C1N=NCC1c1ccccc1 (stereo unspecified) 0

###

# experimental protocol: NCI Yeast Anticancer Drug Screen. Data for the sgs1 mgt1 strain (AID 161);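 also: 0% = growth of cultures given vehicle only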
# condition context: S. cerevisiae sgs1 mgt1 strain, at 5.0 µM (retest, dose inferred, filed as 0.5), active compounds read high
This is part of a sample that, as a whole, favours compounds with a hit. Of some 79,000 tested, about 15% had one in any assay.
Give growth inhibition for every item shown.
Write it as a number; the unit % goes unstated.

// growth inhibition value for "O=C(/C=C(/c1ccccc1)N1CCCCC1)c1ccccc1" : 44

// growth inhibition value for "CC[N+](CC)(CC)c1ccccc1" : -21

// growth inhibition value for CCOC(=O)C1N=[N+](c2ccccc2)C(=O)/C1=C\n1c(=S)[nH]c2ccc([N+](=O)[O-])cc21 (stereo not drawn) : -4

// growth inhibition value for COC(=O)C1=C(C(=O)OC)C(C(=O)OC)C(C(=O)OC)C(C(=O)OC)(C(=O)OC)C(C(=O)OC)=C1C(=O)OC (stereo not drawn) : 96

// growth inhibition value for "Cc1c(-c2ccccn2)ccc2ccccc12" : -2

// growth inhibition value for CCCCNC1CCC2(SCCS2)c2[nH]c3ccccc3c21 (stereo not drawn) : -5

// growth inhibition value for "O=[N+]([O-])c1cc(F)c(F)cc1Sc1cc(F)c(F)cc1[N+](=O)[O-]" : 64

// growth inhibition value for Cn1c(=O)c2c(nc(N)n2C2OC(CO)C(O)C2O)n(C)c1=O (stereo not drawn) : -17

// growth inhibition value for "CCCC/C=C/C(C)(C(=O)OCC)C(=O)OCC" : 0

// growth inhibition value for C[CH2][Sn]([CH2]C)([O]C(=O)C(N)Cc1ccccc1)[O]C(=O)C(N)Cc1ccccc1 (stereo not drawn) : -21

// growth inhibition value for "O=[N+]([O-])/C=C/c1cc(Cl)c(/C=C/[N+](=O)[O-])cc1Cl" : 23

// growth inhibition value for "CCCCC/C(=C(\C#N)C(=O)OCC)c1ccccc1" : -1

// growth inhibition value for "CCc1cc(O)c(Cl)c(C)c1Cl" : -9

// growth inhibition value for "CCOC(=O)c1ccc(NC(=O)O/N=C(/Cl)C(C)C)cc1" : -12

// growth inhibition value for "COC(=O)Nc1cn2ccc(C(Cl)=C(Cl)Cl)cc2n1" : 28

// growth inhibition value for "Cc1cc(C)c(NC(=S)NC(=O)c2ccccc2)cc1C" : -7

// growth inhibition value for "CC[n+]1oc(C(=O)c2ccc(Cl)cc2)c(-c2ccccc2)c1-c1ccccc1.[Cl][Fe]([Cl])([Cl])[Cl]" : 34

// growth inhibition value for "CCOc1ccccc1N=Cc1c2ccccc2cc2ccccc12" : -8

// growth inhibition value for Nc1nc2ccc(NCc3ccc(C(=O)NC(CCC(=O)O)C(=O)O)cc3)cc2c(=O)[nH]1 (stereo not drawn) : 21

// growth inhibition value for C[Si](C)(C)/C=C/CCNC(C#N)c1ccccc1 (stereo not drawn) : -12

// growth inhibition value for CC(=O)OC1CCC2(C)C(=CC(C3C=C4CC(OC(C)=O)CCC4(C)C4=C3C3CC5OC6(CCC(C)CO6)C(C)C5C3(C)CC4)C3=C2CCC2(C)C3CC3OC4(CCC(C)CO4)C(C)C32)C1 (stereo not drawn) : -10

// growth inhibition value for "CCOC(=O)c1cc([N+](=O)[O-])c(Sc2ncnc3nc[nH]c23)c([N+](=O)[O-])c1" : 6

// growth inhibition value for "NC(=S)NC(=S)Nc1ccccc1" : -3

// growth inhibition value for "CCN(CC)CCOc1cc(C)c2cc(Cc3ccccc3)ccc2n1" : 5

// growth inhibition value for O=C1C=C(c2ccccc2)OC1(c1ccccc1)N1CCOCC1 (stereo not drawn) : -2

// growth inhibition value for CCCOC(=O)C(F)C(Br)C(=O)OCCC (stereo not drawn) : 21

// growth inhibition value for "Cc1c(C)c(C)c(CSC(=N)N)c(C)c1C" : -4

// growth inhibition value for "N#CC(=Nc1ccccc1F)Nc1ccccc1F" : -3

// growth inhibition value for "CC(=O)Nc1ccc2c(c1)-c1ccccc1C2=O" : -3

// growth inhibition value for "c1ccc2c(c1)sc1c3cnccc3ccc21" : -55

// growth inhibition value for COc1ccc(C(NCCNC(c2ccc(OC)c(OC)c2)c2cc3c(cc2O)OCO3)c2cc3c(cc2O)OCO3)cc1OC (stereo not drawn) : 4

// growth inhibition value for "O=C1C(Br)=C(c2ccccc2)O/C1=C/C(=O)c1ccc(Br)cc1" : -7

// growth inhibition value for "O=C1CC(=O)c2ccccc21" : 3

// growth inhibition value for "CCCCc1ccc(-n2c(C)c(COC(=O)NC)c(COC(=O)NC)c2C)cc1" : 26

// growth inhibition value for COc1cc(C2SCC(=O)N2c2ccc(-c3ccc(-n4c(-c5ccccc5)nc5ccccc5c4=O)cc3)cc2)ccc1O (stereo not drawn) : -7

// growth inhibition value for "O=[N+]([O-])c1cccc2nc3ccccc3c(NCCC[N+]3([O-])CCCCC3)c12" : 78

// growth inhibition value for "Cc1cc(C)nc(NS(=O)(=O)c2ccc(Nc3c4ccccc4nc4c(C(=O)NCCO)cccc34)cc2)n1" : -9

// growth inhibition value for "COc1c(O)c(C=O)c(Br)c(C=O)c1O" : 16

// growth inhibition value for "CCOC(=O)C(C(=O)OCC)=P(c1ccccc1)(c1ccccc1)c1ccccc1" : -10

// growth inhibition value for CC1CC(C)(C)CC(OCCN2CCCCC2)(c2ccccc2)C1 (stereo not drawn) : 4

// growth inhibition value for "CC(C)(C)c1ccc(NS(=O)(=O)c2ccc(N)cc2)cc1" : 0

// growth inhibition value for "Cc1cc(C(C)(C)C)c(OCCCN2CCOCC2)c(C(C)(C)C)c1" : 2

// growth inhibition value for "CCOc1ccc(NC(=O)C2=C(C)NC(C)=C(C(=O)Nc3ccc(OCC)cc3)C2c2cccc([N+](=O)[O-])c2)cc1" : -12

Hello, the source for this data is PubChem BioAssay (NCI), in case you need it.
